- Tested on: replicative DNA helicase (DnaC/DnaB), Staphylococcus aureus
- TEST DETAILS: S. aureus DnaC helicase unwinding inhibition – biochemical, fluorescence unwinding readout, primary screen (AID 485395);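 further: 0% = mean of negative control wells and 100% = mean of positive control wells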
- RUN CONDITIONS: purified S. aureus helicase, fluorescence unwinding assay; hits give high values; concentration not given here
The whole screen tested about 120,000 compounds, of which about 55 (0.05%) were called active. The sample holds actives, similar compounds and a random draw of the others, so the mix is not that of the screen.
Consider the following compounds and their measured inhibition readings.

// solved cases for inhibition follow
COMPOUND: COCCNC(=O)Cn1cc(/C=C2\C(=O)NC(=O)N(C3CCCCC3)C2=O)c2ccccc21
SYSTEM UNDER TEST: replicative DNA helicase (DnaC/DnaB), Staphylococcus aureus
inhibition: -31% (inactive)
--
COMPOUND: COC(=O)c1c(Cn2cc(Br)ccc2=O)nc2ccccc2c1C
SYSTEM UNDER TEST: replicative DNA helicase (DnaC/DnaB), Staphylococcus aureus
inhibition: 0% (inactive)
--
COMPOUND: COc1cc(C)c2c(=O)c(-c3csc(C)n3)coc2c1
SYSTEM UNDER TEST: replicative DNA helicase (DnaC/DnaB), Staphylococcus aureus
inhibition: -19% (inactive)
--
COMPOUND: CCOC(=O)COc1ccc2cc(-c3nc4ccccc4s3)c(=O)oc2c1
SYSTEM UNDER TEST: replicative DNA helicase (DnaC/DnaB), Staphylococcus aureus
inhibition: -176% (inactive)

Asked: Recorded inhibition for CCOC(=O)c1c(Cc2cccc(C)c2)c[nH]c1-c1ccccc1 with replicative DNA helicase (DnaC/DnaB), Staphylococcus aureus, please?
Given back: 9% (inactive)

Asked: Also CC1(C)CC(NS(C)(=O)=O)CC(C)(C)N1O ?
Given back: 20% (inactive)

Asked: Next compound up: N#Cc1c(N)nc2c(c1N)CC(=O)N2c1ccccc1
Given back: -11% (inactive)

====

- Tested on: replicative DNA helicase (DnaC/DnaB), Staphylococcus aureus
- TEST DETAILS: S. aureus DnaC helicase unwinding inhibition – biochemical, fluorescence unwinding readout, primary screen (AID 485395);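 further: 0% = mean of negative control wells and 100% = mean of positive control wells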
- RUN CONDITIONS: purified S. aureus helicase, fluorescence unwinding assay; hits give high values; concentration not given here
About 55 (0.05%) of roughly 120,000 compounds were called active. The entries come from a sample that favours actives as a whole.
READOUT LABEL: inhibition (%)
Hi! Could you send only the number? It should be in %, unit omitted.

COMPOUND: O=C(N/N=C/c1ccc(F)cc1)c1n[nH]c2c1CCC2
UNITS OF MEASURE: %
inhibition: 15

COMPOUND: Cc1ccc(C)c(C(C)NC(=O)Cc2c(C)noc2C)c1 (centres undefined)
UNITS OF MEASURE: %
inhibition: -13

COMPOUND: COCC(C)n1c(C)cc(C2=NNC(=Nc3ccc(F)cc3F)SC2)c1C (centres undefined)
UNITS OF MEASURE: %
inhibition: 16

COMPOUND: O=S1(=O)CC=C(S(=O)(=O)c2ccccc2)C1
UNITS OF MEASURE: %
inhibition: 2

COMPOUND: CC(C)c1ccccc1N=Cc1ccc2c(c1)OCO2
UNITS OF MEASURE: %
inhibition: -15

COMPOUND: N#Cc1cccc(OCC(=O)NCC(F)(F)F)c1
UNITS OF MEASURE: %
inhibition: 12

Asked: API: value(readout= inhibition, system= replicative DNA helicase (DnaC/DnaB), Staphylococcus aureus, query= C=C(C)CNC(=S)NN )
Given back: -24

Asked: Next up: O=C(O)c1cccc(N2C(=O)/C(=C\c3ccc4c(c3)OCO4)SC2=S)c1
Given back: 15

Asked: Same again, this time with COc1ccc(-c2cc3c(n2Cc2ccc(F)cc2)CC(C)(C)CC3=O)cc1
Given back: -11

Asked: Same again, this time with O=C1NC(c2ccccn2)Nc2sc3c(c21)CCCC3 (centres undefined)
Given back: 9

Asked: Request: CCN(CC)c1nc(-c2ccccc2O)nc2ccccc12
Given back: -3

====

- Test system: replicative DNA helicase (DnaC/DnaB), Staphylococcus aureus
- TEST DETAILS: S. aureus DnaC helicase unwinding inhibition – biochemical, fluorescence unwinding readout, primary screen (AID 485395);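 further: 0% = mean of negative control wells and 100% = mean of positive control wells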
- RUN CONDITIONS: purified S. aureus helicase, fluorescence unwinding assay; hits give high values; concentration not given here
About 55 (0.05%) of roughly 120,000 compounds were called active. The sample holds actives, similar compounds and a random draw of the others, so the mix is not that of the screen.
READOUT LABEL: inhibition (%)
Only the number, expressed in %, is required.

COMPOUND: NC(=O)C1CCN(C(=O)COc2ccc(Cl)cc2Cl)CC1
MEAS VALUE: 0

Consider the additional compound presented here.
Asked: If you can, please state the reported inhibition value of CCN(C(=O)Cc1noc2ccccc12)c1cc(OC)ccc1OC .
Given back: 9

====

- Test system: replicative DNA helicase (DnaC/DnaB), Staphylococcus aureus
- TEST DETAILS: S. aureus DnaC helicase unwinding inhibition – biochemical, fluorescence unwinding readout, primary screen (AID 485395);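 further: 0% = mean of negative control wells and 100% = mean of positive control wells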
- RUN CONDITIONS: purified S. aureus helicase, fluorescence unwinding assay; hits give high values; concentration not given here
Out of some 120,000 compounds screened, about 55 (0.05%) were called active. The sample as a whole holds a higher share of actives than the screen did.
READOUT LABEL: inhibition (%)
Give just the number in %; leave the unit off.

COMPOUND: O=C(NC(c1ccccc1)c1ccccc1)C1COC2C=CC=CC2O1 (stereo unspecified)
inhibition (%): 5

Asked: # lookup: inhibition of CN1C/C(=C/c2ccc3c(c2)OCCO3)C(=O)/C(=C/c2ccc3c(c2)OCCO3)C1
Given back: 8

Asked: Lookup CCC(=O)Nc1ccc(-c2cn3cccnc3n2)cc1
Given back: 5

====

- Test system: replicative DNA helicase (DnaC/DnaB), Staphylococcus aureus
- TEST DETAILS: S. aureus DnaC helicase unwinding inhibition – biochemical, fluorescence unwinding readout, primary screen (AID 485395);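 further: 0% = mean of negative control wells and 100% = mean of positive control wells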
- RUN CONDITIONS: purified S. aureus helicase, fluorescence unwinding assay; hits give high values; concentration not given here
Screen size: about 120,000 compounds; about 55 (0.05%) were called active. This excerpt belongs to a sample that is enriched for actives.
READOUT LABEL: inhibition (%)
The response must be a number in % with no trailing unit.

// worked examples, inhibition included
MOLECULE: CCSc1nnc(SCC(=O)c2ccc(OC)cc2OC)s1
MEAS VALUE: -4

MOLECULE: CCOc1ccc(NC(=O)Cn2c(=O)n(CC(=O)NC3CCCC3)c(=O)c3ccccc32)cc1
MEAS VALUE: -11

MOLECULE: Cc1noc(N)c1C(=O)OCc1ccc(COC(=O)c2c(C)noc2N)cc1
MEAS VALUE: -28

Asked: Report inhibition for CC(C)N(C(=O)CSc1nnc2sc3ccccc3n12)C(C)C please.
Given back: 7

Asked: Next molecule up: Cc1cnc(C(=O)Nc2ccc(S(=O)(=O)NC(C)C)cc2)cn1
Given back: -1

====

- Test system: replicative DNA helicase (DnaC/DnaB), Staphylococcus aureus
- TEST DETAILS: S. aureus DnaC helicase unwinding inhibition – biochemical, fluorescence unwinding readout, primary screen (AID 485395);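 further: 0% = mean of negative control wells and 100% = mean of positive control wells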
- RUN CONDITIONS: purified S. aureus helicase, fluorescence unwinding assay; hits give high values; concentration not given here
Out of some 120,000 compounds screened, about 55 (0.05%) were called active. Only a selection was taken, and actives are over-represented in it overall.
Listing of recorded inhibition by entry.

Answered cases to consult:
MOLECULE: CC1CCC(C(=O)NC(C(=O)N2CCN(Cc3ccccc3)CC2)C(C)C)CC1 (stereo not drawn)
MEAS VALUE: 0% (inactive)
--
MOLECULE: COc1ccc(Cc2nn3c(C(C)(C)C)nnc3s2)cc1OC
MEAS VALUE: -4% (inactive)

Asked: Given Cn1c(-c2ccco2)nn(C2CC(=O)C3OCC2O3)c1=S (stereo not drawn) , state its recorded inhibition.
Given back: -1% (inactive)

====

compounds and their reported inhibition
- Test system: replicative DNA helicase (DnaC/DnaB), Staphylococcus aureus
- TEST DETAILS: S. aureus DnaC helicase unwinding inhibition – biochemical, fluorescence unwinding readout, primary screen (AID 485395);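 further: 0% = mean of negative control wells and 100% = mean of positive control wells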
- RUN CONDITIONS: purified S. aureus helicase, fluorescence unwinding assay; hits give high values; concentration not given here
About 55 (0.05%) of roughly 120,000 compounds were called active. What follows is part of a selection rich in actives, with near analogues and random picks from the rest.
Respond with the bare value in %.

Answered examples (6):
COMPOUND: CCCc1nnc(SCC(=O)N2CCCC2)n1CCOC
UNITS OF MEASURE: %
inhibition: 3

COMPOUND: CCNC(=O)C1CCN(c2ncnc3c2nc2n3CCCCC2)CC1
UNITS OF MEASURE: %
inhibition: -22

COMPOUND: COCCN1Cc2cccc(C(=O)NCc3ccco3)c2C1=O
UNITS OF MEASURE: %
inhibition: -9

COMPOUND: COc1ccc(Br)cc1CN(C)C(C)C(=O)N1CC(C)OC(C)C1 (stereo unspecified)
UNITS OF MEASURE: %
inhibition: -12

COMPOUND: COc1nc(-c2ccccc2)ccc1-c1noc(C(C)C)n1
UNITS OF MEASURE: %
inhibition: 2

COMPOUND: Cc1nc(-c2ccccc2)sc1C(=O)NCC1CCCO1 (stereo unspecified)
UNITS OF MEASURE: %
inhibition: -20

Asked: Recall the recorded inhibition for COc1ccc(/C=C/C(=O)CC(=O)c2ccccc2O)cc1 with replicative DNA helicase (DnaC/DnaB), Staphylococcus aureus and state it.
Given back: -17

Asked: Now consider c1ccc(-n2nnnc2N2CCCC2c2nc3ccccc3s2)cc1 (stereo unspecified) and answer again.
Given back: -12

Asked: Subsequent entry: COc1ccc(C(CC(=O)O)NS(=O)(=O)c2ccccc2F)cc1OC (stereo unspecified)
Given back: -3

Asked: Would you mind doing Cc1ccc(-c2nc(C#N)c(NCc3ccc4c(c3)OCO4)o2)cc1 as well?
Given back: 5

Asked: Next: COc1ccc(S(=O)(=O)NCCn2ccc3ccccc32)cc1
Given back: -14

Asked: Queued: Cn1nc(NCc2ccc(Cl)cc2)c(=O)n(C)c1=O
Given back: -8
